# test_method_notes: modulators of LAP4-GFP expression in yeast, primary screen, S. cerevisiae, multiplex flow cytometry (AID 1873)
# measurement_setup: 3 h, at 10 µM, stronger effect = higher value
Records with an inconclusive call do not appear.
attribute_measured: GFP response vs DMSO (%)

>>> recorded_result("C[N+](C)(C)Cc1ccccc1")
109
>>> recorded_result("COP(=S)(OC)SCN1C(=O)c2ccccc2C1=O")
144
>>> recorded_result("COc1cccc(Oc2c(C)oc3cc(OC(=O)N(C)C)ccc3c2=O)c1")
99.1
>>> recorded_result("CC(=O)c1ccc(-c2ccccc2)cc1")
84.7
>>> recorded_result("C[C@@]1(CO)[C@H](O)CC[C@@]2(C)[C@H]1CC[C@H]1C[C@@H]3C[C@@]12CC[C@]3(O)CO")
103
>>> recorded_result("CCOC(=O)c1cncn1C(C)c1ccccc1 (stereo unspecified)")
80.2
>>> recorded_result("O=C1CN=C(c2ccccc2F)c2cc(Cl)ccc2N1")
78.7
>>> recorded_result("CCOC(=O)C1=C(C)OC(N)=C(C(=O)OCC)[C@@]12C(=O)N(CC(N)=O)c1ccccc12")
71
>>> recorded_result("C[C@]12CC[C@@H](O)C[C@@H]1CC[C@@H]1[C@@H]2CC[C@]2(C)C(=O)CC[C@@H]12")
147
>>> recorded_result("c1ccc2c(c1)[nH]c1cnccc12")
88.1
>>> recorded_result("C[C@H]1CCC/C=C/C2C[C@H](O)CC2[C@H](O)/C=C/C(=O)O1 (stereo partly specified)")
100

====

# Test system: Botulinum neurotoxin type F light chain protease (Clostridium botulinum)
# test_method_notes: Botulinum neurotoxin type F light chain protease inhibition, multiplex microsphere flow cytometry, validation set (AID 588459)
# measurement_setup: multiplex microsphere protease substrate cleavage assay, at 10 µM, stronger effect = higher value
Below is a list of entries, each paired with its recorded inhibition value.
attribute_measured: inhibition (%)

>>> recorded_result("Cc1ccc2[nH]c(=O)c(Cc3ccccc3)c(O)c2c1")
0.6
>>> recorded_result("COc1ccc(/C=C(/C#N)c2cccnc2)cc1OC")
-0.3
>>> recorded_result("COc1ccc(C=NCC2COc3ccccc3O2)cc1OC (stereo unspecified)")
-0.8
>>> recorded_result("CN(CCc1cnn(C)c1)Cc1nc(CC2CC2)no1")
0.2
>>> recorded_result("CN(C)CCC(c1ccccc1)c1ccccn1 (stereo unspecified)")
-2.8
>>> recorded_result("CC(=O)OCC(=O)C1=CCC2C3CCC4=CC(=O)C=CC4(C)C3(F)C(OC(C)=O)CC12C (stereo unspecified)")
0.8

====

# test_method_notes: modulators of CIT2-GFP expression in yeast, primary screen, S. cerevisiae, GFP fusion, multiplex flow cytometry (AID 1870)
# measurement_setup: 3 h, at 10 µM, stronger effect = higher value
attribute_measured: percent response of DMSO control (%)

>>> recorded_result("CC(=O)OC1C2CCC1C(N1CCCC1)CC2 (centres undefined)")
97.7
>>> recorded_result("CN1C2CCC1CC(OC(=O)CCN1CCCC1)C2 (centres undefined)")
107
>>> recorded_result("COC1=CC(=O)OC(/C=C/c2ccccc2)C1 (centres undefined)")
105
>>> recorded_result("COc1ccc(NC2=NCC(C)S2)cc1 (centres undefined)")
109
>>> recorded_result("CC(=O)c1ccc(-c2ccccc2)cc1")
110
>>> recorded_result("CC12CN3CC(C)(CN(C1)C31CCOCC1)C2=O")
101
>>> recorded_result("CC(=O)C1=C(C)OC(N)=C(C(=O)OC(C)C)C12C(=O)Nc1ccccc12 (centres undefined)")
103
>>> recorded_result("CC(C)CC12CN3CCN(CC(C3)C1O)C2 (centres undefined)")
111
>>> recorded_result("Cc1ccc(/C=C2/C(=O)NC(=O)N(C)C2=O)cc1")
95.9
>>> recorded_result("COc1ccc(OC)c(C(O)C(C)N)c1 (centres undefined)")
95.4
>>> recorded_result("O=C1CCCC2=C1C(c1cccnc1)Nc1ccccc1N2 (centres undefined)")
121
>>> recorded_result("O=S(=O)(c1ccc(F)cc1)N1CCCCC1c1cccnc1 (centres undefined)")
98.3
>>> recorded_result("O=c1[nH]c2ccccc2n1C1CCN(CCCC(c2ccc(F)cc2)c2ccc(F)cc2)CC1")
103
>>> recorded_result("CN[C@H]1C[C@H]2O[C@@](C)([C@H]1OC)n1c3ccccc3c3c4c(c5c6ccccc6n2c5c31)C(=O)NC4")
107
>>> recorded_result("CC(C)[C@@]1(NC(=O)[C@@H]2C[C@@H]3c4cccc5[nH]cc(c45)C[C@H]3N(C)C2)O[C@@]2(O)[C@@H]3CCCN3C(=O)[C@H](Cc3ccccc3)N2C1=O")
112
>>> recorded_result("Clc1ccc(COC(Cn2ccnc2)c2ccc(Cl)cc2Cl)cc1 (centres undefined)")
107
>>> recorded_result("CC[C@@H](CO)NC(=O)[C@@H]1C=C2c3cccc4c3c(cn4C)C[C@H]2N(C)C1")
99.8
>>> recorded_result("C[C@@]1(CO)[C@H](O)CC[C@@]2(C)[C@H]1CC[C@H]1C[C@@H]3C[C@@]12CC[C@]3(O)CO")
102
>>> recorded_result("O=C1NCCN2CCCC12 (centres undefined)")
102
>>> recorded_result("CC(C)NC(C)C(=O)c1ccc2ccccc2c1 (centres undefined)")
98.6
>>> recorded_result("O=C(O)CCCc1ccc(N(CCCl)CCCl)cc1")
98.8
>>> recorded_result("CCOc1ccc(C2C(C#N)=C(N)Oc3c2c(=O)oc2ccccc32)cc1 (centres undefined)")
102
>>> recorded_result("COc1ccc(OC)c([C@@H](O)[C@H](C)NC(C)(C)C)c1")
94.5
>>> recorded_result("[N-]=[N+]=NC1C[C@H](n2ccc(=O)[nH]c2=O)O[C@@H]1CO (some centres undefined)")
106
>>> recorded_result("CC(C)CCC1(CN2CCCC2=O)C(=O)NC(=O)NC1=O")
86.3
>>> recorded_result("CN1CC[C@@]23CCCC[C@@H]2[C@@H]1Cc1ccc(O)cc13")
96.6
>>> recorded_result("COP(=S)(OC)SCN1C(=O)c2ccccc2C1=O")
97
>>> recorded_result("COc1cc2c3cc1Oc1cc(ccc1O)C[C@@H]1c4c(cc(OC)c(O)c4Oc4ccc(cc4)C[C@H]3N(C)CC2)CCN1C")
107
>>> recorded_result("Cn1c(O)c(C=NCCc2c[nH]c3ccccc23)c(=O)n(C)c1=O")
97.7
>>> recorded_result("CC[N+]1(C)CCCC(OC(=O)C(O)(c2ccccc2)c2ccccc2)C1 (centres undefined)")
103
>>> recorded_result("CCNC(=O)[C@H]1O[C@@H](n2cnc3c(N)ncnc32)[C@H](O)[C@@H]1O")
104
>>> recorded_result("O=C(CCCN1CCC2(CC1)C(=O)NCN2c1ccccc1)c1ccc(F)cc1")
102
>>> recorded_result("c1ccc2c(c1)Nc1ccccc1S2")
95.2
>>> recorded_result("CCOC(=O)c1cc2c(cn1)[nH]c1ccccc12")
103
>>> recorded_result("C[N+]1(C)[C@@H]2CC[C@H]1CC(OC(=O)C(CO)c1ccccc1)C2 (some centres undefined)")
105
>>> recorded_result("CC(C)[N+](C)(CCC(C(N)=O)(c1ccccc1)c1ccccc1)C(C)C")
107
>>> recorded_result("NCC1(c2ccc3c(c2)OCCO3)CCCC1")
97.9
>>> recorded_result("CC(C)C[C@H]1C(=O)N2CCCC2[C@]2(O)O[C@](NC(=O)[C@@H]3C=C4c5cccc6[nH]cc(c56)CC4N(C)C3)(C(C)C)C(=O)N12 (some centres undefined)")
96.6
>>> recorded_result("COc1ccc(C(=O)N2CCCC2=O)cc1")
105

====

# test_method_notes: inhibitors of CD8+ T cell-vesicle binding, pilot screen, LFA-1/ICAM-1 modulator project, MLPCN validation set, flow cytometry (AID 2523)
# measurement_setup: 2C mouse CD8+ T cells, at 7 µM, stronger effect = lower value; measured here: CD8+/vesicle+ event percentage
Recorded double positive events for the following compounds
attribute_measured: double positive events (%)

>>> recorded_result("C[C@]12CCC(=O)C=C1CCC1C2CC[C@@]2(C)C1CC[C@@]2(O)CC#N (stereo partly specified)")
71.1
>>> recorded_result("CCOc1ccc(N2C(=O)NC(=O)/C(=C\\c3cc(OC)c(OC)cc3[N+](=O)[O-])C2=O)cc1")
60.3
>>> recorded_result("CCCC(C)(COC(N)=O)COC(=O)NC(C)C (stereo unspecified)")
64.3
>>> recorded_result("CC(=O)[C@H]1CC[C@H]2[C@@H]3CC[C@H]4C[C@H](O)CC[C@]4(C)[C@H]3C(=O)C[C@]12C")
60.9
>>> recorded_result("CC12CN3CC(C)(CN(C1)C31CCOCC1)C2=O")
65.1
>>> recorded_result("CCNC(=S)N(C)CCc1cc2c(c(OC)c1C=C1C(=O)N(C)C(=O)N(C)C1=O)OCO2")
62.5
>>> recorded_result("O=c1c2ccccc2[se]n1-c1ccccc1")
57.5
>>> recorded_result("CC(C)CC12CN3CCN(CC(C3)C1O)C2 (stereo unspecified)")
65.4
>>> recorded_result("O=Cc1cn(Cc2ccc(F)cc2)c2ccccc12")
60.5
>>> recorded_result("CC[N+]1(C)CCCC(OC(=O)C(O)(c2ccccc2)c2ccccc2)C1 (stereo unspecified)")
61
>>> recorded_result("CC(=O)C1=C(C)OC(N)=C(C(=O)OC(C)C)C12C(=O)Nc1ccccc12 (stereo unspecified)")
56.3
